Test system: MDA MB 468 cells
test: In vitro cytotoxicity (SRB), MDA MB 468
Type: cell-based, human
recordedConditions: 72 h
Ends that are not written are not given here.
assayMetric: IC50 (nM)
I only need the number, in nM, no unit after it.

What the record says about WSGENGPGFYDYEA [Pep11] : IC50 is 420

Numbers sourced from paper PMC6353898.
